Data provenance is patent US20110172193A1.

system: Staphylococcus aureus (OC8525), a methicillin-resistant strain (MRSA); test: In vivo efficacy in a mouse systemic infection model; details: Staphylococcus aureus, iv, 72 h; Swiss Webster mice infected i.p. with MRSA, i.v. dose 1 h later, 3 day survival; normalized to parent content; read-out: ED50 i.v.
yes if ED50 is below 1 mg/kg. no if not; exact matches included in no.

* COc1c(N2CCC/C(=C(\F)CNC(=O)CNC(=O)[C@@H](N)CCC(=O)O)C2)c(F)cc2c(=O)c(C(=O)O)cn(C3CC3)c12.Cl | no
* COc1c(N2CCC/C(=C(\F)CNC(=O)[C@@H](N)CC(=O)O)C2)c(F)cc2c(=O)c(C(=O)O)cn(C3CC3)c12.Cl | no

Please turn your attention to the following entry.
[Q] Does the reported ED50 of the following molecule sit strictly below 1 mg/kg? `COc1c(N2CCC/C(=C(\F)CNC(=O)CN)C2)c(F)cc2c(=O)c(C(=O)O)cn(C3CC3)c12.Cl`
[A] yes
